# MEASUREMENT_DESCRIPTION: Cytotoxicity against human DPSC cells assessed as reduction of cell viability at 20 uM measured after 24 hrs by MTT assay
# Format: toxicity, cell-based
OUTCOME_MEASURE: Activity (%)
Expressed in %, but write only the number.

A selection of reference data follows.
COc1ccc(CNc2ccc3c(C)nn(C)c3c2)c(O)c1 : 84.9
Cc1nn(C)c2cc(NCc3ccc(F)c(F)c3)ccc12 : 90.4

Q. Fill in the blank: the reported Activity of Cc1nn(C)c2cc(NCc3ccc(N(C)C)cc3)ccc12 is ____.
A. 91.6

###

# System: FaDu
# MEASUREMENT_DESCRIPTION: Cytotoxicity against human FaDu cells assessed as reduction of cell viability measured after 24 hrs by MTT assay
# Type: functional, cell-based
Each entry below lists one item and its recorded pIC50 value.
Notebook: values listed as pIC50 are -log10 of the concentration (mol/L).

Cc1nn(C)c2cc(NCc3ccc(Br)cc3)ccc12 : 5.56
COc1ccc(CNc2ccc3c(C)nn(C)c3c2)cc1 : 5.18
Cc1nn(C)c2cc(NCc3ccc(Cl)cc3)ccc12 : 5.45
COc1ccc(CNc2ccc3c(C)nn(C)c3c2)c(OC)c1OC : 5.73

Q. Fill in the blank: the reported pIC50 of COc1cc(CNc2ccc3c(C)nn(C)c3c2)cc(OC)c1OC is ____.
A. 4.70

Q. Same question, Cc1nn(C)c2cc(NCc3ccc(F)c(F)c3)ccc12 this time
A. 5.46

Q. Same question, Cc1nn(C)c2cc(NCc3ccc([N+](=O)[O-])cc3)ccc12 this time
A. 4.95

Q. Same question, COc1ccc(CNc2ccc3c(C)nn(C)c3c2)cc1O this time
A. 5.21

From: ChEMBL document CHEMBL5325464
